- ASSAY_SYSTEM: T1, human Nectin-4 (human, UniProt Q96NY8 32-510)
- T1 sequence (looked up): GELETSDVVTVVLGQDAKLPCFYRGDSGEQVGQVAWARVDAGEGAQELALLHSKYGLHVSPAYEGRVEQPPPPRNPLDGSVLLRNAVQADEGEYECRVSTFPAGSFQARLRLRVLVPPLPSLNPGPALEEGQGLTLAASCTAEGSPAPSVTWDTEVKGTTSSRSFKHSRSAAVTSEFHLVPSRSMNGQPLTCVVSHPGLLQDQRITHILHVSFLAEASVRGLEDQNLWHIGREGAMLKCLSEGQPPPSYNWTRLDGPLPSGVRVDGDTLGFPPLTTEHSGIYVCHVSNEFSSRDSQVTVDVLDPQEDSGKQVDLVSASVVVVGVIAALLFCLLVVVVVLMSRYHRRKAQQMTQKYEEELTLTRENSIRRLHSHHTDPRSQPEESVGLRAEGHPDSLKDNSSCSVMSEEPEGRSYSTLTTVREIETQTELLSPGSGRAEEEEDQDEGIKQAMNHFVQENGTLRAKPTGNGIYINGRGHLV
- ASSAY_EXPLANATION: cell-based or functional assay
REPORTED_ENDPOINT: Percentage of cell killing at the highest concentration (%)
Give bare numbers, in %.

Worked set:
5M21 hz11-E (antibody, human IgG1, kappa, V domains shown, vcMMAE conjugated to the TECP-reduced antibody; residues not stated; DAR 4.0±1) VH: QVQLVQSGAEVKKPGASVKVSCKASGYTFTTYYIHWVRQAPGQRLEWMGWIYPGNVNTKYNEKFKGRVTITADKSASTAYMELSSLRSEDTAVYYCARGLYYFDYWGQGTLVTVSS VL: DIQMTQSPSSLSASVGDRVTITCKASQSVSNDVAWYQQKPGKVPKLLIYYASNRYTGVPSRFSGSGSGTDFTLTISSLQPEDLATYFCQQDYSSPYTFGGGTKVEIKR; 38.5
mIgG 42D20-E (antibody, V domains shown) VH: QVQLKESGPGLVAPSQSLSISCTVSGFSLIDYGVSWIRQPPGKGLEWLGVIWGDGKIYYNSVLKSRLSISKDNSKSQVFLKMNSLQTDDTAMYYCAKQGGLLFYAMDYWGQGTSVTVSS VL: DIVMTQSPSSLAMSVGQRVTMNCKSSQSLLNSYSQKNYLAWYQQKPGQSPKLLIYFASTRESGVPDRFIGSGSETDFTLTISSVQAEDLADYFCQQHYNTPFTFGSGTKLEIK; 33.5
mIgG 5M21-E (antibody, V domains shown) VH: QVQLQQSGPELVKPGASVRITCKASGYTFTTYYIHWVKQRPGQGLEWIGWIYPGNVNTKYNEKFKGKATLTADKSSSTAYMQLSSLTSEDSAVYFCARGLYYFDYWGQGTTLTVSS VL: SIVMTQTPKFLLVSAGDRLTITCKASQSVSNDVAWYQQKPGQSPKLLIYYASNRYTGVPDRFTGSGYGTDFTFTISTVQAEDLAVYFCQQDYSSPYTFGGGTKLEIK; 36
42D20 hz10-E (antibody, V domains shown, vcMMAE conjugated to the TECP-reduced antibody; residues not stated; DAR 4.0±1) VH: QVQLQESGPGLVKPSETLSLTCTVSGFSLIDYGVSWIRQPPGKGLEWIGVIWGDGKIYYNSVLKSRVTISKDNSKSQVSLKLSSVTAADTAVYYCAKQGGLLFYAMDYWGQGTLVTVSS VL: DIVMTQSPDSLAVSLGERATINCKSSQSLLNSYSQKNYLAWYQQKPGQPPKLLIYFASTRESGVPDRFSGSGSGTDFTLTISSLQAEDVAVYYCQQHYNTPFTFGAGTKLELKR; 33.7

Lab note: measured Percentage of cell killing at the highest concentration of 5M21 hz10-E (antibody, human IgG1, kappa, V domains shown, vcMMAE conjugated to the TECP-reduced antibody; residues not stated; DAR 4.0±1) VH: QVQLVQSGAEVKKPGASVKVSCKASGYTFTTYYIHWVRQAPGQRLEWMGWIYPGNVNTKYNEKFKGRVTITADKSASTAYMELSSLRSEDTAVYYCARGLYYFDYWGQGTLVTVSS VL: DIQMTQSPSSLSASVGDRVTITCKASQSVSNDVAWYQQKPGKVPKLLIYYASNRYTGVPSRFSGSGSGTDFTLTISSLQPEDVATYYCQQDYSSPYTFGGGTKVEIKR was 29.4
